Molecular target: Short transient receptor potential channel 6 (Mus musculus) (UniProt Q61143)
Sequence (Q61143 whole entry, looked up): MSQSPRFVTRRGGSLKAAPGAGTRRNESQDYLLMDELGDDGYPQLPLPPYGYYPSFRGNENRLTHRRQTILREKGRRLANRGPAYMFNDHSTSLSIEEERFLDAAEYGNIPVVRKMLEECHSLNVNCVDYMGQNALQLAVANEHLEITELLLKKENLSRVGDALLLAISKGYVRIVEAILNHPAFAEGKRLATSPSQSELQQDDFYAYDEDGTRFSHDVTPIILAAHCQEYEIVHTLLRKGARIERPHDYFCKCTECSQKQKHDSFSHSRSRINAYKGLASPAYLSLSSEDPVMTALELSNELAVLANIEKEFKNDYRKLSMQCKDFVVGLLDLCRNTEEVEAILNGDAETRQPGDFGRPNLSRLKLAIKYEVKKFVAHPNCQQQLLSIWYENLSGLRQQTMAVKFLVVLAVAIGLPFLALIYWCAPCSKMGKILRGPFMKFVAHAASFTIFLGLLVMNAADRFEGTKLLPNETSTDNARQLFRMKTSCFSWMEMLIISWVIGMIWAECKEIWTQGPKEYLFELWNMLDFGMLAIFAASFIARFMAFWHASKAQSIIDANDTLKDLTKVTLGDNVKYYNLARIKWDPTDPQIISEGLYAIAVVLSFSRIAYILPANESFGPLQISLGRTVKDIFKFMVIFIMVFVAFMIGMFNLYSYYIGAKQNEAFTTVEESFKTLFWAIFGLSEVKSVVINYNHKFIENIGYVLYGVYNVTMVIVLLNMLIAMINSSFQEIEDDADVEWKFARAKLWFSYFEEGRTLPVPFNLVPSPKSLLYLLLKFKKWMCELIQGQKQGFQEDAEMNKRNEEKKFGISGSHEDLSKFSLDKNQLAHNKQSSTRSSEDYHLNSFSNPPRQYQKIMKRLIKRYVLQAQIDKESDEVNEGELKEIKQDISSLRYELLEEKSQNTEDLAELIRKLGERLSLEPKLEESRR
Assay: TRPC6 blockade by TRPC4 inhibitor hits – cell-based, HEK293, membrane potential dye, duplicate, selectivity assay for TRPC4 inhibitor project, confirmation (AID 434948)
Settings: HEK293 TRPC6, membrane potential dye fluorescence, at 10 µM, stimulated with maximal-effect acetylcholine
Calls of active or inactive are those of the source.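 Rule for the calls: active = active in primary screen and both duplicates, each dropping signal beyond three positive-control SD with fluorescence still positive; inactive = the rest.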
Labels: Y = active, N = inactive

| MOLECULE | CLASS |
| --- | --- |
| COc1ccc(C)cc1N(C(=O)c1snc(C(N)=O)c1N)C(C(=O)NC1CCCC1)c1ccc(F)cc1 (stereo not given) | N |
| Cc1cc(C)cc(NC(=S)N2CCN(c3ncc(C(F)(F)F)cc3Cl)CC2)c1 | N |
| Cc1cc(C)nc(/N=C(\N)N(Cc2ccccc2)Cc2ccccc2)n1 | Y |
| O=C(C[n+]1cccc(CNC(=O)c2ccc(OC(F)F)cc2)c1)Nc1ccc(SC(F)F)cc1 | N |
| CC1CCN(CCOCCOc2ccccc2-c2ccccc2)CC1 | N |
